# Tested on: SNB-75 CNS
# protocol-details: NCI tumour cell line growth inhibition, 48 h
For each record, write down the corresponding TGI.

C[n+]1c2ccccc2c(NCC(=O)O)c2ccccc21
> 100 µM
O=C(OCc1ccccc1)N(CCCCN(CCCNC(=O)C(F)(F)F)C(=O)OCc1ccccc1)CCCNC(=O)C(F)(F)F
> 100 µM
Fc1ccc(Nc2ncnc3ccc(-c4cnc5[nH]ccc5c4)cc23)cc1Cl
3.42 µM
O=C1c2ccccc2C(=O)c2sc(Nc3cccc(Cl)c3)nc21
3.67 µM
COc1cccc2c1C(=O)C1=C(C2=O)C(O)CC(C)(C)O1 (stereo unspecified)
> 100 µM

Please give TGI, item by item, for the list that follows.
1. CSC1=C(C#N)C(=S)N=C(N)C1C(=O)Nc1ccc(C)cc1 (stereo unspecified)
2. N=C(N)c1ccc(/C=C/c2ccc(C(=N)N)cc2)cc1
3. CC(=O)NC1=C(NCC(C)(C)C)C(=O)c2ccccc2C1=O
4. COc1cc(C(=O)/C=C/c2sc(Cl)nc2Cl)cc(OC)c1OC
5. Nc1cc2nc3ccccc3sc-2cc1=O

Output line:
1. > 100 µM
2. > 100 µM
3. > 100 µM
4. 3.8 µM
5. 7.71 µM

---

# System: NCI-H522 lung
# protocol-details: NCI tumour cell line growth inhibition, 48 h
quantity: TGI (µM)
One number for each entry, in µM.

CN(C)CCCN1c2ccc([N+](=O)[O-])cc2CCc2cccc([N+](=O)[O-])c21
32.1
CC1=CC(=O)[C@@H](O)[C@]2(C)[C@H]3[C@@]4(O)OC[C@]35[C@H]([C@@H](C)[C@H]4O)[C@@H](OC(=O)C(C)(C)CO)C(=O)O[C@@H]5C[C@@H]12
0.417
CC1OC(OC2C(OC(=O)[C@]34CCC(C)(C)C[C@H]3C3=CC[C@@H]5[C@@]6(C)CC[C@H](OC7OC(C(=O)O)C(O)C(O)C7O)C(C)(C)[C@@H]6CC[C@@]5(C)[C@]3(C)C[C@H]4O)OCC(O)C2O)C(O)C(O)C1OC1OCC(OC2OCC(O)C(O)C2O)C(O)C1O (stereo partly drawn)
16.5

# return TGI for each item in the list
1. NS(=O)(=O)c1ccccc1C(=O)N/N=C(\c1nc2ccc([N+](=O)[O-])cc2[nH]c1=O)C(O)c1ccc([N+](=O)[O-])cc1 (stereo not drawn)
2. COc1ccc(NC(=O)c2cc(OC)cc(OC)c2)cc1
3. C/C(=C\CO)CC/C=C(\C)CNc1c(F)c(F)c(F)c(F)c1F
4. NC(N)=N/N=C/c1c(-c2ccc(Cl)c([N+](=O)[O-])c2)nc2sc(Cl)cn12
5. O=C1C2=C(SCCS2)C(=O)c2ccccc21
6. Cc1nc2c(nc1C)C(=O)c1ccccc1C2=O

Output line:
59.2
83.8
46.3
3.07
3.17
10.7

Could I get TGI for every one of these entries?
1. COc1ccc2c(c1)C(=O)/C(=C/c1ccc(OCC(=O)Nc3nccs3)cc1)O2
2. Nc1cc2nc3ccccc3sc-2cc1=O

Output line:
1. 0.393
2. 5.87

Would you be so kind as to report TGI for each listed record?
1. CN(C)CCCNC1=C(Cl)C(=O)c2ccccc2C1=O
2. COc1cc(NC(C)c2ccc3c(c2)OCCO3)cc(OC)c1OC (stereo not drawn)

Output line:
1: 3.83; 2: 48.9

Input line: I'd like to know its TGI. The compound in question is C=Cc1nc2c(Cl)ncnc2n1Cc1ccccc1
Output line: 3.83

---

# Test system: RXF 393 renal
# protocol-details: NCI tumour cell line growth inhibition, 48 h
Where a SMILES comes first, the peptide text is derived from it. [ ]: non-standard residue; d: D form. The star is where a group is joined. Boc = CC(C)(C)OC(=O)*; Lac = C[CH](O)C(=O)O; OBn = c1ccc(CO*)cc1
Give measured TGI for each item. Keep answers brief.

Please review the entries below; each comes with its answer.
Nc1ncc(Br)c(NCC2(CO)CCC2)n1
> 100 µM
COc1ccc(-n2/c(=N/C(=S)N(C)C)ss/c2=N\C(=S)N(C)C)cc1
> 100 µM

For every item below, please supply its TGI.
1. CC(=O)NC1=C(NCC(C)(C)C)C(=O)c2ccccc2C1=O
2. Nc1ccccc1-c1noc(=O)[nH]1
3. COC1(c2ccc(Cl)cc2)SC=C(C)n2c1noc2=O (stereo not given)
4. CC(OC(=O)C(Cc1ccccc1)NC(=O)C(Cc1ccccc1)NC(=O)OC(C)(C)C)C(=O)OCc1ccccc1 (stereo not drawn) (Boc-Phe-Phe-[Lac]-OBn; configuration not given here)
5. COc1ccccc1CCN1CCN(CCCc2ccccc2)CC1
6. CC1=C(C#N)C23C(=O)c4ccccc4C(O)=C2C(=O)C=CC3(O)N1Cc1ccccc1 (stereo not given)
7. C/C=C/C(C#N)(/C=C/c1ccccc1)OP1(=O)OC(c2ccccc2)C(C)N1C (stereo not given)
8. O=C(Nc1ccc(F)cc1F)c1cc(I)ccc1O

Output line:
> 100 µM
> 100 µM
> 100 µM
> 100 µM
> 100 µM
> 100 µM
38.5 µM
7 µM

---

# Test system: DLD-1 colon
# protocol-details: NCI tumour cell line growth inhibition, 48 h
quantity: TGI

Solved entries (count: 3):
COc1cccc(NC(=O)CC(=O)n2nc(C)c(N=Nc3ccccc3)c2C)c1
> 100 µM
CC1CN1P1(N2CC2C)=NP(N2CC2C)(N2CC2C)=NP(N2CC2C)(N2CC2C)=N1 (centres undefined)
> 50 µM
O=C1N(Cl)C(=O)C(c2ccc(Cl)cc2)(c2ccc(Cl)cc2)N1Cl
> 100 µM

Read the next record carefully.
Input line: Please provide the recorded TGI for Nc1ccc(C(=O)N/C(=C\c2ccc3c(c2)OCO3)c2nc3[nH]c(=S)[nH]c(=O)c3[nH]2)cc1 , tested on DLD-1 colon.
Output line: > 100 µM

---

# Test system: HCT-116 colon
# protocol-details: NCI tumour cell line growth inhibition, 48 h
quantity: TGI

CN1CCc2cc3c(c4c2C1C(O)c1ccccc1-4)OCO3 (stereo unspecified)
> 100 µM

Can you give me TGI for all of these, one by one?
1. O=C(NC(=S)Nc1ccc(Br)cc1)c1ccc2c(c1)Sc1ccccc1S2
2. CCOC(=O)Nc1nc2ccc(OCC)cc2s1
3. C/C=C/C(C#N)(/C=C/c1ccccc1)OP1(=O)OC(c2ccccc2)C(C)N1C (stereo unspecified)
4. CCOc1ccccc1-n1c(CN2CCN(C(=O)COc3ccc(CNCCCCCCN4C5CCCC4CC(OC(=O)Nc4cc(C)ccc4OC)C5)cc3)CC2)nc2ccccc2c1=O (stereo unspecified)
5. COc1c2c(cc3c1C(=O)c1c(O)cccc1C3=O)CC(O)CC2 (stereo unspecified)
6. Cc1cccc2oc3c(CC(=O)O)cccc3c(=O)c12

Output line:
1. 51 µM
2. > 100 µM
3. 31.3 µM
4. 1.32 µM
5. > 100 µM
6. > 100 µM

Batch: TGI for all items listed.
1. C1=CC2(C=CC13O[C@H](C1CCCCC1)[C@@H](C1CCCCC1)O3)O[C@H](C1CCCCC1)[C@@H](C1CCCCC1)O2
2. Nc1cc2nc3ccccc3sc-2cc1=O
3. O=C1C2=C(SCCS2)C(=O)c2ccccc21
4. COc1ccccc1NC(=O)CC(=O)n1nc(C)c(N=Nc2ccccc2C(=O)O)c1C
5. Cn1c(=O)c2c3ccccc3n(C)c2n(C)c1=O

Output line:
["> 50 µM", "10.3 µM", "3.04 µM", "> 100 µM", "> 100 µM"]

---

# Test system: MALME-3M melanoma
# protocol-details: NCI tumour cell line growth inhibition, 48 h; in the data active means GI50 below about 0.43 µM; inactive means the rest
Pick one and only one: YES for active, NO for inactive

Answered examples (2):
Clc1cccc(Cc2cn3cc(-c4ccccc4)nc3s2)c1Cl
NO
COc1cc(C(=O)/C=C/c2sc(Cl)nc2Cl)cc(OC)c1OC
NO

Input line: Could you please tell me the result logged for CCCCCCCC(=O)SCC/C=C/[C@@H]1CC(=O)NCc2cccc(n2)C2=N[C@@](C)(CS2)C(=O)N[C@@H](C(C)C)C(=O)N1 in this assay?
Output line: YES

Input line: Could you kindly confirm the outcome this assay logged for CCCCCCCCSC1=CC(=O)c2nc3ccccc3c3ccnc1c23 ?
Output line: NO

Input line: Identify the outcome logged in this assay for the compound shown: O=C(CN1CCN(c2cc3c(cc2F)c(=O)c(C(=O)N/N=C/c2ccccc2O)cn3C2CC2)CC1)N/N=C\c1ccccc1O
Output line: NO

Input line: Hello, I am checking results. What call was entered for CC(C)c1ccc(C(C)C(=O)N(CC2=C(C(C)c3ccccn3)c3ccccc3C2)C(C)C)cc1 (configuration not stated) ?
Output line: NO

Input line: What did this assay record as the result for O=[N+]([O-])c1cnc(Sc2ccncn2)s1 ?
Output line: NO

Every entry's value here was drawn from PubChem BioAssay (NCI).
